Recorded values, source patent US7517874B2.

# SYSTEM: human CB1 receptor (hCB1) (Homo sapiens)
# Sequence (P21554 whole entry): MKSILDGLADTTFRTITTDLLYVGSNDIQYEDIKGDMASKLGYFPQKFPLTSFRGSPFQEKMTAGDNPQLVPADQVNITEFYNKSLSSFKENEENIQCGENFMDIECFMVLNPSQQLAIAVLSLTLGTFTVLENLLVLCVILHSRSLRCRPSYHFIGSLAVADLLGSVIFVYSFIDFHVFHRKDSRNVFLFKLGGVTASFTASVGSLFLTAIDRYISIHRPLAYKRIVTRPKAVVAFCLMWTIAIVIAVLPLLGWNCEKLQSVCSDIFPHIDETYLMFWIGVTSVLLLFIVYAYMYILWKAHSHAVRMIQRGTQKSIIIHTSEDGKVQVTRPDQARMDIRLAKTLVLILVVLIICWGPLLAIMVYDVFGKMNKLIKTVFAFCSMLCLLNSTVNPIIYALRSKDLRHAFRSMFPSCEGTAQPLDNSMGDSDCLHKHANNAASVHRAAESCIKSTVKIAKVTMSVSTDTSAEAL
# MEASUREMENT_PROTOCOL: cell-based
# Format: cell-based
For each entry below, report its EC50 value.

Dear colleague, I am looking for the recorded EC50 of the following compound: CNC(=O)[C@@H](NC(=O)c1nc(-c2ccccc2C(F)(F)F)n2c1CN(C)CC2)C(C)(C)C
> 10 µM

Dear colleague, I am looking for the recorded EC50 of the following compound: CN1CCCn2c(-c3ccccc3)nc(C(=O)N[C@H](C(=O)NCC3CCOCC3)C(C)(C)C)c2C1
> 10 µM

Dear colleague, I am looking for the recorded EC50 of the following compound: COC(=O)[C@@H](NC(=O)c1nc(-c2ccccc2)n2c1CN(C)CCC2)C(C)(C)C
> 10 µM

Dear colleague, I am looking for the recorded EC50 of the following compound: C[C@H](NC(=O)c1nc(-c2ccccc2)n2c1CNCC2)c1ccccc1
> 10 µM

Dear colleague, I am looking for the recorded EC50 of the following compound: CNC(=O)[C@@H](NC(=O)c1nc(-c2cccc(Cl)c2)n2c1CN(C)CCC2)C(C)(C)C
> 10 µM

Dear colleague, I am looking for the recorded EC50 of the following compound: C[C@@H](NC(=O)c1nc(-c2ccccc2)n2c1CN(C(=O)C1CCOC1)CC2)C1CCCCC1 (stereo partly shown)
> 10 µM

Dear colleague, I am looking for the recorded EC50 of the following compound: CN1CCCn2c(-c3ccccc3)nc(C(=O)N[C@H](C(=O)NC3CC3)C(C)(C)C)c2C1
> 10 µM

Dear colleague, I am looking for the recorded EC50 of the following compound: CNC(=O)[C@H](CC(C)C)NC(=O)c1nc(-c2ccc(Cl)c(F)c2)n2c1CN(C)CC2
> 10 µM

Dear colleague, I am looking for the recorded EC50 of the following compound: CNC(=O)[C@H](CC(C)C)NC(=O)c1nc(-c2ccc(F)cc2F)n2c1CN(C)CCC2
> 10 µM

Dear colleague, I am looking for the recorded EC50 of the following compound: CNC(=O)[C@@H](NC(=O)c1nc(-c2ccccc2)n2c1CN(C(C)C)CC2)C(C)(C)C
> 10 µM

Dear colleague, I am looking for the recorded EC50 of the following compound: COC(=O)[C@@H](NC(=O)c1nc(-c2ccc(C)cc2F)n2c1CNCCC2)C(C)(C)C
> 10 µM

Dear colleague, I am looking for the recorded EC50 of the following compound: CC12CCC(C1)C(C)(C)C2NC(=O)c1nc(-c2ccccc2)n2c1CN(C(=O)C1CC1)CC2 (stereo not shown)
> 10 µM

Dear colleague, I am looking for the recorded EC50 of the following compound: CNC(=O)[C@@H](NC(=O)c1nc(-c2cccc(F)c2)n2c1CN(C)CC2)C(C)(C)C
> 10 µM

Dear colleague, I am looking for the recorded EC50 of the following compound: CNC(=O)[C@@H](NC(=O)c1nc(-c2ccc(F)c(C)c2)n2c1CN(C)CCC2)C(C)(C)C
> 10 µM

Dear colleague, I am looking for the recorded EC50 of the following compound: CNC(=O)[C@@H](NC(=O)c1nc(-c2ccc(Cl)cc2F)n2c1CNCCC2)C(C)(C)C
> 10 µM

Dear colleague, I am looking for the recorded EC50 of the following compound: CNC(=O)[C@@H](NC(=O)c1nc(-c2csc3ccccc23)n2c1CN(C)CCC2)C(C)(C)C
> 10 µM

Dear colleague, I am looking for the recorded EC50 of the following compound: CCS(=O)(=O)N1CCn2c(-c3ccccc3)nc(C(=O)NC3C4(C)CCC(C4)C3(C)C)c2C1 (stereo not shown)
> 10 µM

Dear colleague, I am looking for the recorded EC50 of the following compound: CNC(=O)[C@@H](NC(=O)c1nc(-c2ccc(OC)c(F)c2)n2c1CN(C)CCC2)C(C)(C)C
> 10 µM

Dear colleague, I am looking for the recorded EC50 of the following compound: CNC(=O)[C@@H](NC(=O)c1nc(Cl)n2c1CN(C)CCC2)C(C)(C)C
> 10 µM

Dear colleague, I am looking for the recorded EC50 of the following compound: CNC(=O)[C@@H](NC(=O)c1nc(-c2cccc(S(=O)(=O)N3CCCC3)c2)n2c1CN(C)CCC2)C(C)(C)C
> 10 µM

Dear colleague, I am looking for the recorded EC50 of the following compound: CC(C)C[C@H](NC(=O)c1nc(-c2ccc(F)cc2)n2c1CN(C)CCC2)C(N)=O
> 10 µM

Dear colleague, I am looking for the recorded EC50 of the following compound: CN1CCn2c(-c3ccc(Cl)cc3F)nc(C(=O)N3CCC4(CC3)C(=O)NCN4c3ccccc3)c2C1
> 10 µM

Dear colleague, I am looking for the recorded EC50 of the following compound: CNC(=O)[C@@H](NC(=O)c1nc(-c2ccccc2)n2c1CN(S(=O)(=O)CC(C)C)CC2)C(C)(C)C
> 10 µM

Dear colleague, I am looking for the recorded EC50 of the following compound: CNC(=O)[C@@H](NC(=O)c1nc(C#Cc2cccnc2)n2c1CN(C)CC2)C(C)(C)C
> 10 µM

Dear colleague, I am looking for the recorded EC50 of the following compound: CNC(=O)[C@@H](NC(=O)c1nc(/C=C/COC)n2c1CN(C)CC2)C(C)(C)C
> 10 µM

Dear colleague, I am looking for the recorded EC50 of the following compound: CC(C)(C)[C@H](CO)NC(=O)c1nc(-c2ccccc2)n2c1CNCC2
> 10 µM

Dear colleague, I am looking for the recorded EC50 of the following compound: CNC(=O)[C@@H](NC(=O)c1nc(-c2ccccc2)n2c1CN(CCC(C)(C)C)CC2)C(C)(C)C
> 10 µM

Dear colleague, I am looking for the recorded EC50 of the following compound: CNC(=O)[C@@H](NC(=O)c1nc(-c2cc(F)c(F)c(F)c2)n2c1CN(C)CCC2)C(C)(C)C
> 10 µM

Dear colleague, I am looking for the recorded EC50 of the following compound: CNC(=O)[C@@H](NC(=O)c1nc(-c2ccccc2F)n2c1CN(C)CCC2)C(C)(C)C
> 10 µM

Dear colleague, I am looking for the recorded EC50 of the following compound: CC(C)CN1CCn2c(-c3ccccc3)nc(C(=O)N[C@H](C)C(C)(C)C)c2C1
> 10 µM

Dear colleague, I am looking for the recorded EC50 of the following compound: CNC(=O)[C@@H](NC(=O)c1nc(-c2ccc(C)c(F)c2)n2c1CN(C)CC2)C(C)(C)C
> 10 µM
